Molecular target: human Lck enzyme (Homo sapiens, UniProt P06239)
Construct: purchased Carna Biosciences, Inc. 08-170
Sequence (P06239 whole entry): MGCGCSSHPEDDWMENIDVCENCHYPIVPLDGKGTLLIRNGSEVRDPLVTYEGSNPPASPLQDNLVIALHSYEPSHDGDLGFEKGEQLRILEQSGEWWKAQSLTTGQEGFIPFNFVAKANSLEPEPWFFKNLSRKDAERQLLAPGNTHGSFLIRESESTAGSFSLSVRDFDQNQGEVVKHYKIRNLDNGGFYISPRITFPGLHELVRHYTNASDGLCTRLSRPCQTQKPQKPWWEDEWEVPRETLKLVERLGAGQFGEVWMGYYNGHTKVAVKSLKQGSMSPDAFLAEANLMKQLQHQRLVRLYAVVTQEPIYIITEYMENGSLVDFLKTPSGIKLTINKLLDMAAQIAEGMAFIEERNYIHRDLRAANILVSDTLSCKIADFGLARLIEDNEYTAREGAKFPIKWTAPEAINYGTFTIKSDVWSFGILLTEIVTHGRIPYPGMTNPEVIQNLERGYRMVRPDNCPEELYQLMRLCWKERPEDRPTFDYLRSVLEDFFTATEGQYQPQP
Experiment: Lck enzyme inhibitory activity (time-resolved fluorometry, biotinylated peptide phosphorylation)
Format: biochemical
Conditions: biotinylated peptide phosphorylation, read-out: LCK_IC50
Endpoint name: IC50 (nM)
Write it as a number; the unit nM goes unstated.

Cc1cc(Oc2ccccc2F)ccc1-n1ncc(C(=O)c2cc3cc(N4CCOCC4)c(NS(C)(=O)=O)cc3[nH]2)c1N = 12
CC(=O)N1CCC(c2cc3[nH]c(C(=O)c4cnn(-c5cnc(Oc6c(F)cccc6F)cc5C)c4N)cc3cc2OCC(F)F)CC1 = 12

Here's the next entry for you.
Can you look up the measured IC50 of CC(=O)N1CCC(c2cc3[nH]c(C(=O)c4cnn(-c5ccc(Oc6ccccc6F)cc5C)c4N)cc3cc2OCC(F)F)CC1 for me?
13

====

Target: human Src enzyme (Homo sapiens, UniProt P12931)
Construct: purchased Carna Biosciences, Inc. 08-173
Sequence (P12931 whole entry): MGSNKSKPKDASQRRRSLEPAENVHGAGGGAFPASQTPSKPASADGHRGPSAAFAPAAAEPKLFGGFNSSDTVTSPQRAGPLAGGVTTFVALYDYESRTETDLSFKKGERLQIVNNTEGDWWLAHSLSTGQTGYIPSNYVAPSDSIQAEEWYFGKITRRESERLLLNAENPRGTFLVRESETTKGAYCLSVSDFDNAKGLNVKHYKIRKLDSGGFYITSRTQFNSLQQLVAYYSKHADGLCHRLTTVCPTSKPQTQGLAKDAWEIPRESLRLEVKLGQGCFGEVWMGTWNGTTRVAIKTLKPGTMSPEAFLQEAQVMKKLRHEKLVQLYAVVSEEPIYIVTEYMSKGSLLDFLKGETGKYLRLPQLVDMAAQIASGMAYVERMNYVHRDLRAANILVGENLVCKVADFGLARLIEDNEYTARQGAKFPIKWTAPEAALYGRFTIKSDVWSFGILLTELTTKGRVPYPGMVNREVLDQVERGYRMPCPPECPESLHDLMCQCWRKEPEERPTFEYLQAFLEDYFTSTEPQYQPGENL
Assay: Src enzyme inhibitory activity (time-resolved fluorometry, biotinylated peptide phosphorylation)
Assay type: biochemical
Settings: read-out: SRC_IC50
Experimental: 2. Src Enzyme Inhibitory Activity Src inhibitory activity was determined based on activity of inhibiting phosphorylation reaction of a biotinylated peptide (EGPWLEEEEEAYGWMDF) using a human Src enzyme (manufactured by Carna Biosciences, Inc., cat 08-173). The phosphorylated biotinylated peptide was detected by time-resolved fluorometry using an anti-phosphorylated tyrosine antibody conjugated to europium cryptate, and streptavidin conjugated to XL665, an allophycocyanin derivative. […]
Below, each entry is listed alongside its reported IC50.
Output should be the measured figure followed by the unit it is expressed in.

Can you look up the measured IC50 of Cc1cc2cc(C(=O)c3cnn(-c4c(C)cc(Oc5cccc(F)c5F)cc4F)c3N)[nH]c2cc1NS(=O)(=O)N1CCOCC1 for me?
0.21 µM

Can you look up the measured IC50 of CS(=O)(=O)Nc1cc2[nH]c(C(=O)c3cnn(-c4ccc(Oc5cccc(F)c5F)cc4Cl)c3N)cc2cc1F for me?
0.093 µM

====

Target: human Lck enzyme (Homo sapiens)
Construct: purchased Carna Biosciences, Inc. 08-170
Assay: Lck enzyme inhibitory activity (time-resolved fluorometry, biotinylated peptide phosphorylation)
Assay type: biochemical
Conditions: read-out: LCK_IC50
pIC50: −log10 of the molar value.
Label true (1) when pIC50 is at or above 8; otherwise label false (0).

Cc1cc2cc(C(=O)c3cnn(-c4cnc(Oc5c(F)cccc5F)cc4C)c3N)[nH]c2cc1NS(=O)(=O)N1CCOC[C@H]1C = false (0)
Cc1cc2cc(C(=O)c3cnn(-c4c(C)cc(Oc5ccccc5F)cc4F)c3N)[nH]c2cc1N1CCOCC1 = true (1)
Cc1cc2cc(C(=O)c3cnn(-c4cnc(Oc5ccc(F)cc5)cc4C)c3N)[nH]c2cc1NS(=O)(=O)N1CCOCC1 = false (0)

In plain terms: is recorded pIC50 at least 8 for Cc1cc(Oc2ccccc2F)ncc1-n1ncc(C(=O)c2cc3cc(SC(F)F)c(N4C(=O)NC(C)(C)C4=O)cc3[nH]2)c1N ?
false (0)

In plain terms: is recorded pIC50 at least 8 for Cc1cc(Oc2ccccc2F)ccc1-n1ncc(C(=O)c2cc3cc(N4CCOCC4)c(N4CCOC4=O)cc3[nH]2)c1N ?
true (1)

In plain terms: is recorded pIC50 at least 8 for Cc1cc(Oc2c(F)cccc2F)ncc1-n1ncc(C(=O)c2cc3cc(OCC(F)F)c(N4C(=O)N[C@]5(CCNC5)C4=O)cc3[nH]2)c1N ?
true (1)

In plain terms: is recorded pIC50 at least 8 for Cc1cc(Oc2c(F)cccc2F)ncc1-n1ncc(C(=O)c2cc3cc(C(C)C)c(NS(=O)(=O)N4C5CCC4COC5)cc3[nH]2)c1N ?
false (0)

In plain terms: is recorded pIC50 at least 8 for CC(C)N1CCC(c2cc3cc(C(=O)c4cnn(-c5ccc(Oc6ccccc6Cl)cc5)c4N)[nH]c3cc2F)CC1 ?
true (1)

In plain terms: is recorded pIC50 at least 8 for Cc1cc(Oc2ccccc2F)ccc1-n1ncc(C(=O)c2cc3cc(F)c(N4CCC(N5CCOCC5)CC4)cc3[nH]2)c1N ?
true (1)

In plain terms: is recorded pIC50 at least 8 for Cc1cc(Oc2c(F)cccc2F)ncc1-n1ncc(C(=O)c2cc3cc(OCC(F)F)c(NS(=O)(=O)C4CCOCC4)cc3[nH]2)c1N ?
false (0)

In plain terms: is recorded pIC50 at least 8 for Cc1cc(-n2ncc(C(=O)c3cc4cc(OC5CCN(C6CCC6)CC5)c(NS(C)(=O)=O)cc4[nH]3)c2N)ccc1Oc1ccccc1F ?
false (0)

====

Below, each entry is listed alongside its reported pIC50.
Target: human Src enzyme (Homo sapiens)
Construct: purchased Carna Biosciences, Inc. 08-173
Test: Src enzyme inhibitory activity (time-resolved fluorometry, biotinylated peptide phosphorylation)
Type: biochemical
Details: read-out: SRC_IC50
pIC50 is a log-scale quantity: -log10 of the concentration expressed in molar.

Reference set (5 entries):
Cc1cc(Oc2c(F)cccc2F)ncc1-n1ncc(C(=O)c2cc3cc(F)c(N4C(=O)NC5(CCCC5)C4=O)cc3[nH]2)c1N [Example 5-1-344] = 6.82
Cc1cc(Oc2c(F)cccc2F)ncc1-n1ncc(C(=O)c2cc3cc(OC(F)F)c(Br)cc3[nH]2)c1N [Example 5-1-149] = 7.24
Cc1cc(-n2ncc(C(=O)c3cc4cc(OC5CCN(C6CCCC6)CC5)c(Br)cc4[nH]3)c2N)ccc1Oc1ccccc1F [Example 5-1-216] = 6.00
COc1ccc(S(=O)(=O)Nc2cc3[nH]c(C(=O)c4cnn(-c5cnc(Oc6c(F)cccc6F)cc5C)c4N)cc3cc2OCC(F)F)cc1 [Example 5-1-299] = 6.21
Cc1cc(-n2ncc(C(=O)c3cc4cc(N5CCOCC5)c(NS(C)(=O)=O)cc4[nH]3)c2N)ccc1Oc1ccccc1F [Example 5-1-157] = 5.96

Can you look up the measured pIC50 of Cc1cc2cc(C(=O)c3cnn(-c4cnc(Oc5c(F)cccc5F)cc4C)c3N)[nH]c2cc1N1C(=O)NC2(CCN(C3COC3)C2)C1=O (stereo not shown) [Example 5-1-362] for me?
7.54

Can you look up the measured pIC50 of Cc1cc2cc(C(=O)c3cnn(-c4c(C)cc(Oc5ccccc5F)cc4F)c3N)[nH]c2cc1NS(=O)(=O)CC(=O)N1CCCC1 [Example 5-1-110] for me?
7.17

Can you look up the measured pIC50 of Cc1cc(-n2ncc(C(=O)c3cc4cc(N5CCOCC5)c(N5CCC(N6CCOCC6)CC5)cc4[nH]3)c2N)ccc1Oc1ccccc1F [Example 5-1-165] for me?
6.47

Can you look up the measured pIC50 of Cc1cc(Oc2ccccc2F)ccc1-n1ncc(C(=O)c2cc3cc(OC(F)F)c(NS(=O)(=O)C4CCOCC4)cc3[nH]2)c1N [Example 5-1-390] for me?
7.36

Can you look up the measured pIC50 of CC(=O)N1CCC(c2cc3[nH]c(C(=O)c4cnn(-c5ccc(Oc6ccccc6F)cc5C)c4N)cc3cc2C)CC1 [Example 5-1-132] for me?
8.18

Can you look up the measured pIC50 of Cc1cc(Oc2ccccc2F)ccc1-n1ncc(C(=O)c2cc3cc(F)c(NC4CCN(S(C)(=O)=O)CC4)cc3[nH]2)c1N [Example 5-1-135] for me?
7.92

====

Target: human Lck enzyme (Homo sapiens)
Construct: purchased Carna Biosciences, Inc. 08-170
Assay: Lck enzyme inhibitory activity (time-resolved fluorometry, biotinylated peptide phosphorylation)
Type: biochemical
Details: biotinylated peptide phosphorylation, read-out: LCK_IC50
Below, each entry is listed alongside its reported pIC50.
pIC50 is a log-scale quantity: -log10 of the concentration expressed in molar.

Cc1cc2cc(C(=O)c3cnn(-c4c(C)cc(Oc5cccc(F)c5F)cc4F)c3N)[nH]c2cc1N1CCCS1(=O)=O = 7.80
Cc1cc2cc(C(=O)c3cnn(-c4cnc(Oc5c(F)cccc5F)cc4C)c3N)[nH]c2cc1N1C(=O)N[C@@H](C(C)C)C1=O = 7.92

Short answer please: pIC50, human Lck enzyme (Homo sapiens), entry COc1ccnc(S(=O)(=O)Nc2cc3[nH]c(C(=O)c4cnn(-c5ccc(Oc6ccccc6F)cc5C)c4N)cc3cc2F)c1
7.48

====

Target: human Yes1 enzyme (Homo sapiens)
Construct: made in house
Sequence (P07947 whole entry): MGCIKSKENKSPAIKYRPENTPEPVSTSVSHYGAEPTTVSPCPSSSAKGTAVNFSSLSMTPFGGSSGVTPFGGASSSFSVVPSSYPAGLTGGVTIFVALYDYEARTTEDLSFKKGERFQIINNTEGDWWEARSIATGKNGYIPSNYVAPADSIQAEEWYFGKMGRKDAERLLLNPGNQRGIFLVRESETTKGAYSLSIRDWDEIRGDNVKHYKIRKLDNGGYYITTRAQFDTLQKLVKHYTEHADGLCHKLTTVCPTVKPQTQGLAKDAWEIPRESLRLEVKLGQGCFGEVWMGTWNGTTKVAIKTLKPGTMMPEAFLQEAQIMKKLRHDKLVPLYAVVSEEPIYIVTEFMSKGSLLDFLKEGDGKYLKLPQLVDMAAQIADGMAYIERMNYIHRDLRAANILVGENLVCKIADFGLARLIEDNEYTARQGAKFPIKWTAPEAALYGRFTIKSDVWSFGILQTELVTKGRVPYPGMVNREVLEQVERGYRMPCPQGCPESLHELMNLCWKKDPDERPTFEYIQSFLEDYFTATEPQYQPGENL
Assay: Yes1 enzyme inhibitory activity (time-resolved fluorometry, biotinylated peptide phosphorylation)
Type: biochemical
Conditions: read-out: YES_IC50
Using IC50 as the sorting value, the categories are low range: < 2 nM; mid range: ≥ 2 nM and < 6 nM; high range: ≥ 6 nM

Illustrative cases are given below, each with its answer.
Cc1cc(-n2ncc(C(=O)c3cc4cc(OCC(F)F)c(C5CCOCC5)cc4[nH]3)c2N)ccc1Oc1ccccc1F [Example 5-1-258] = high range
Cc1cc(Oc2ccccc2F)ccc1-n1ncc(C(=O)c2cc3cc(OCC(F)F)c(N4CCC(O)CC4)cc3[nH]2)c1N [Example 5-1-087] = low range
Cc1cc2cc(C(=O)c3cnn(-c4cnc(Oc5c(F)cccc5F)cc4C)c3N)[nH]c2cc1NS(=O)(=O)C1CCOC1 (stereo not shown) [Example 5-1-281] = low range
CC(C)N1CCC(c2cc3[nH]c(C(=O)c4cnn(-c5ccc(Oc6cccc(F)c6F)cc5F)c4N)cc3cc2F)CC1 [Example 5-1-011] = low range
Cc1cc(Oc2c(F)cccc2F)ncc1-n1ncc(C(=O)c2cc3cc(OCC(F)F)c(-c4cccs4)cc3[nH]2)c1N [Example 5-1-257] = high range
Cc1cc(Oc2c(F)cccc2F)ncc1-n1ncc(C(=O)c2cc3cc(F)c(NS(=O)(=O)C4CCOCC4)cc3[nH]2)c1N [Example 5-1-381] = mid range

Place this molecule in its band: Cc1cc(Oc2c(F)cccc2F)ncc1-n1ncc(C(=O)c2cc3cc(C(C)C)c(NS(=O)(=O)C4CCCC4)cc3[nH]2)c1N [Example 5-1-306]
high range

Place this molecule in its band: Cc1cc(Oc2ccccc2F)ncc1-n1ncc(C(=O)c2cc3cc(SC(F)F)c(NS(=O)(=O)CCCF)cc3[nH]2)c1N [Example 5-1-339]
mid range

Place this molecule in its band: Cc1cc(Oc2c(F)cccc2F)ncc1-n1ncc(C(=O)c2cc3cc(OCC(F)F)c(-c4cnn(C)c4)cc3[nH]2)c1N [Example 5-1-264]
mid range

Place this molecule in its band: Cc1cc(Oc2ccccc2F)ccc1-n1ncc(C(=O)c2cc3cc(OCC(F)F)c(N4C(=O)[C@@H]5C[C@@H](NC(=O)OCC6c7ccccc7-c7ccccc76)CN5C4=O)cc3[nH]2)c1N [Example 5-1-270]
mid range

Place this molecule in its band: Nc1c(C(=O)c2cc3cc(F)c(NS(=O)(=O)C4CC4)cc3[nH]2)cnn1-c1c(Cl)cc(Oc2cccc(F)c2F)cc1Cl [Example 5-1-026]
high range

Place this molecule in its band: Nc1c(C(=O)c2cc3cc(F)c(NS(=O)(=O)CCCF)cc3[nH]2)cnn1-c1ccc(Oc2ncccc2Cl)cc1F [Example 5-1-036]
low range

Place this molecule in its band: CS(=O)(=O)Nc1cc2[nH]c(C(=O)c3cnn(-c4ccc(Oc5cccc(F)c5F)cc4Cl)c3N)cc2cc1F [Example 5-1-016]
low range
